# measured.on: CDK4 (Homo sapiens, UniProt P11802+Q16531)
# Sequence (P11802 2-303 limits assumed): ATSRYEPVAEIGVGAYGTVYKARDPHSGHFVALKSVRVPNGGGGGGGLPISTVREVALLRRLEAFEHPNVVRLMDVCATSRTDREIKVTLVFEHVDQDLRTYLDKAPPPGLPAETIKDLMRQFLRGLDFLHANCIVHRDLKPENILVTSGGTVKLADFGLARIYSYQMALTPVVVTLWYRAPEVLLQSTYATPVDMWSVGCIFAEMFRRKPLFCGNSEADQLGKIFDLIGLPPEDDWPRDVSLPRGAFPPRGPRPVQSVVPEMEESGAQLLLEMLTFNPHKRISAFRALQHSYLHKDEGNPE
# Sequence (P24385 whole entry partner): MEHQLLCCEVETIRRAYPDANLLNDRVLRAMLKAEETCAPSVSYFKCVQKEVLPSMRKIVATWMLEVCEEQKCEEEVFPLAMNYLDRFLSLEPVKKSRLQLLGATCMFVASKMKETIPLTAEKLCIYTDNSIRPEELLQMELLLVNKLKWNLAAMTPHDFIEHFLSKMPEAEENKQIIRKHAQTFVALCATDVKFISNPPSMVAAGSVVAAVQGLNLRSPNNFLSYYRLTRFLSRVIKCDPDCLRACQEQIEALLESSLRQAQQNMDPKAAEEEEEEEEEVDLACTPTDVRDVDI
# Sequence (Q16531 2-1140 limits assumed): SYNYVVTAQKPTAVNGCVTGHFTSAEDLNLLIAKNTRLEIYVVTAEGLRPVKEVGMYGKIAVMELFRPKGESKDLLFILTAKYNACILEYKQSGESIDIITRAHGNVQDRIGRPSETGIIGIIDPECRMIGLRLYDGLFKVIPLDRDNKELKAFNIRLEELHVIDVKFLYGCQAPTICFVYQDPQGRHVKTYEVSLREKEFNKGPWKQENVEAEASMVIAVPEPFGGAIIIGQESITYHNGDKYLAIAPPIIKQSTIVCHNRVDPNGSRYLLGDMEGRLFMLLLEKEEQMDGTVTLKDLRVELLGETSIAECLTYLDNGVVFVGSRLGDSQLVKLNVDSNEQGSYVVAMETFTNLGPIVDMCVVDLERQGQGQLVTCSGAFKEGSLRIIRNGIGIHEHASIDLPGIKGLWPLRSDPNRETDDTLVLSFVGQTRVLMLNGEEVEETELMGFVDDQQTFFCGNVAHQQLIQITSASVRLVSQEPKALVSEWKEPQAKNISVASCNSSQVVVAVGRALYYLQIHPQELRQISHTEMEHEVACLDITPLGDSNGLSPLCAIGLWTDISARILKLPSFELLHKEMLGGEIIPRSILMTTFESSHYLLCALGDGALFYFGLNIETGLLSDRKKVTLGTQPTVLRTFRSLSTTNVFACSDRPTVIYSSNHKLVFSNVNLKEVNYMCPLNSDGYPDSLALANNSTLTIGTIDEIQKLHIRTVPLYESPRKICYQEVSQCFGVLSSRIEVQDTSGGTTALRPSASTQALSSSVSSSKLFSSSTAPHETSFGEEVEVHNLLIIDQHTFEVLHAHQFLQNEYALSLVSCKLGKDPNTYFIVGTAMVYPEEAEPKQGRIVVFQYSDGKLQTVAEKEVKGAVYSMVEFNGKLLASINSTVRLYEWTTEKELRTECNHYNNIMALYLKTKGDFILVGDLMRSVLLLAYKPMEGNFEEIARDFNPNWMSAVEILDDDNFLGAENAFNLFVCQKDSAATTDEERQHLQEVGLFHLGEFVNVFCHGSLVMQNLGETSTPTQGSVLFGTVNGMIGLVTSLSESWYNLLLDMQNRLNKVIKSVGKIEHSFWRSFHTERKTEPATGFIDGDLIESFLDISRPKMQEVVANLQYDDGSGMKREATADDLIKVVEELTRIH
# assay.notes: CDK4 percentage degradation in Calu-1 cells (Table 6)
# Type: cell-based
# Parameters: Cells that express cyclin D1-3 and CDK4/6 proteins were treated with heterobifunctional compounds; endogenous in cells; host or cells: Calu-1
# experimental.setup: 200 nM, 16 hours
# Description: Calu-(cells were treated with heterobifunctional compounds at 40 nM or 200 nM for 16 hours A: protein percentage degradation […]; B: protein percentage degradation <80%, and ≥50%; C: protein percentage degradation <50%, and ≥30%; D; protein percentage degradation […]; -, data not available. Calu-1, T47D, MCF7, HCC1428 and other cells were cultured at 37° C. with 5% CO2 in RPMI 1640 or DMEM medium supplemented with 10% fetal bovine serum. […]
experimental.endpoint: inhibition at 0.2 µM

compound	experimental.endpoint	endpoint.value
CNc1ccc(C(=O)Nc2ccc(N(C)C)nn2)c(Nc2cnn(CCNC(=O)CN3CCN(c4ccc(Nc5ncc6c(C)c(C(C)=O)c(=O)n(C7CCCC7)c6n5)nc4)CC3)n2)n1 [CPD-25]	inhibition at 0.2 µM	50 to 80%
CNc1ccc(C(=O)Nc2ccc(N(C)C)nn2)c(NC2CC3(C2)CN(C(=O)C2(CN4CCN(c5ccc(Nc6ncc7c(C)c(C(C)=O)c(=O)n(C8CCCC8)c7n6)nc5)CC4)CC2)C3)n1 [CPD-115]	inhibition at 0.2 µM	50 to 80%
CNc1ccc(C(=O)Nc2cccc(C(F)(F)F)n2)c(NC2CC3(CC(NC(=O)CN4CCN(c5ccc(Nc6ncc7c(C)c(C(C)=O)c(=O)n(C8CCCC8)c7n6)nc5)CC4)C3)C2)n1 (centres unmarked) [CPD-91]	inhibition at 0.2 µM	30 to 50%
CNc1ccc(C(=O)Nc2ccc(N(C)C)nn2)c(NC2CC(NC(=O)C(C)N3CCN(c4ccc(Nc5ncc6c(C)c(C(C)=O)c(=O)n(C7CCCC7)c6n5)nc4)CC3)C2)n1 (centres unmarked) [CPD-242]	inhibition at 0.2 µM	50 to 80%
CNc1ccc(C(=O)Nc2cccc(C(C)C)n2)c(NC2CC3(CC(NC(=O)CN4CCN(c5ccc(Nc6ncc7c(C)c(C(C)=O)c(=O)n(C8CCCC8)c7n6)nc5)CC4)C3)C2)n1 (centres unmarked) [CPD-76]	inhibition at 0.2 µM	30 to 50%
CNc1ccc(C(=O)Nc2ccc(N(C)C)nn2)c(NC2CC3(C2)CN(C(=O)N2CCN(c4ccc(Nc5ncc6c(C)c(C(C)=O)c(=O)n(C7CCCC7)c6n5)nc4)CC2)C3)n1 [CPD-133]	inhibition at 0.2 µM	50 to 80%

Now look at this one.
What measured inhibition at 0.2 µM is associated with CC(=O)c1c(C)c2cnc(Nc3ccc(N4CCN(CC(=O)NCCCCCNc5nc(C6CC6)ccc5C(=O)Nc5ccc(C)c(C6CC6)n5)CC4)cn3)nc2n(C2CCCC2)c1=O [CPD-44] on CDK4 (Homo sapiens, UniProt P11802+Q16531)?
30 to 50%

----------
# System: T47D cells
# assay.notes: Anti-proliferation (viability) of ER+ breast cancer T47D cells, 6 days (Table 7, FIG. 2B)
# Format: cell-based
# experimental.setup: Homo sapiens, 144 h; T47D cells, 6 days, 10-point serial dilution; read-out: GI IC50 in T47D
experimental.endpoint: IC50

molecule	experimental.endpoint	endpoint.value
CNc1ccc(C(=O)Nc2ccc(N(C)C)nn2)c(Nc2cc(CCNC(=O)CN3CCN(c4ccc(Nc5ncc6c(C)c(C(C)=O)c(=O)n(C7CCCC7)c6n5)nc4)CC3)no2)n1 [CPD-26]	IC50	50 to 100 nM
CNc1ccc(C(=O)Nc2ccc3c(ccn3C)n2)c(NCCCCCNC(=O)CN2CCN(c3ccc(Nc4ncc5c(C)c(C(C)=O)c(=O)n(C6CCCC6)c5n4)nc3)CC2)n1 [CPD-33]	IC50	50 to 100 nM
CNc1ccc(C(=O)Nc2ccc(N(C)C)nn2)c(NC2CC3(C2)CC(OCC(=O)N2CCN(c4ccc(Nc5ncc6c(C)c(C(C)=O)c(=O)n(C7CCCC7)c6n5)nc4)CC2)C3)n1 (centres unmarked) [CPD-84]	IC50	50 to 100 nM
CNc1ccc(C(=O)Nc2ccc(N(C)C)nn2)c(Nc2cnn(CCNC(=O)CN3CCN(c4ccc(Nc5ncc6c(C)c(C(C)=O)c(=O)n(C7CCCC7)c6n5)nc4)CC3)c2)n1 [CPD-24]	IC50	≥ 100 nM
CC(=O)c1c(C)c2cnc(Nc3ccc(N4CCN(CC(=O)NCC5CC(Nc6nc(C)ccc6C(=O)Nc6cc(C)n(C)n6)C5)CC4)cn3)nc2n(C2CCCC2)c1=O (centres unmarked) [CPD-209]	IC50	≥ 100 nM

Look up IC50 for this molecule: CC(=O)c1c(C)c2cnc(Nc3ccc(N4CCN(CC(=O)NCC5CC(Nc6c(C(=O)Nc7cc(C)n(C)n7)cccc6C(F)(F)F)C5)CC4)cn3)nc2n(C2CCCC2)c1=O (centres unmarked) [CPD-266]
≥ 100 nM

Look at this molecule and give its reported IC50. CNc1ccc(C(=O)Nc2ccc(N(C)C)nn2)c(NC2CCN(C(=O)CCN3CCN(c4ccc(Nc5ncc6c(C)c(C(C)=O)c(=O)n(C7CCCC7)c6n5)nc4)CC3)C2)n1 (centres unmarked) [CPD-218]
50 to 100 nM

----------
# measured.on: CDK4 (Homo sapiens, UniProt P11802+Q16531)
# assay.notes: CDK4 percentage degradation in Calu-1 cells (Table 6)
# Format: cell-based
# Parameters: Cells that express cyclin D1-3 and CDK4/6 proteins were treated with heterobifunctional compounds; endogenous in cells; host or cells: Calu-1
# experimental.setup: 40 nM, 16 hours
experimental.endpoint: inhibition at 0.04 µM

Below, 4 compounds whose answers are already recorded.
compound	inhibition at 0.04 µM
CNc1ccc(C(=O)Nc2nc(C3CC3)ccc2C)c(NCCCCCNC(=O)CN2CCN(c3ccc(Nc4ncc5c(C)c(C(C)=O)c(=O)n(C6CCCC6)c5n4)nc3)CC2)n1	< 30%
CC(=O)c1c(C)c2cnc(Nc3ccc(N4CCN(C(CC(=O)N5CC6(CC(Nc7nc(NC(C)C)ccc7C(=O)Nc7ccc(N(C)C)nn7)C6)C5)C(F)(F)F)CC4)cn3)nc2n(C2CCCC2)c1=O (centres unmarked)	< 30%
CNc1ccc(C(=O)Nc2nc(C)c(C)o2)c(NC2CC3(CC(NC(=O)CN4CCN(c5ccc(Nc6ncc7c(C)c(C(C)=O)c(=O)n(C8CCCC8)c7n6)nc5)CC4)C3)C2)n1 (centres unmarked)	50 to 80%
CNc1ccc(C(=O)Nc2ccc(N(C)C)nn2)c(NC2CCN(C(=O)CN3CCN(Cc4ccc(Nc5ncc6c(C)c(C(C)=O)c(=O)n(C7CCCC7)c6n5)nc4)CC3)CC2)n1	< 30%

Next compound, please.
Data request, read-out inhibition at 0.04 µM, for CNc1ccc(C(=O)Nc2cccc(C(F)(F)F)n2)c(NC2CC3(CC(NC(=O)CN4CCN(c5ccc(Nc6ncc7c(C)c(C(C)=O)c(=O)n(C8CCCC8)c7n6)nc5)CC4)C3)C2)n1 (centres unmarked)
< 30%

----------
# measured.on: CDK4 (Homo sapiens, UniProt P11802+Q16531)
# assay.notes: CDK4 percentage degradation in Calu-1 cells (Table 6)
# Type: cell-based
# Set-up: Cells that express cyclin D1-3 and CDK4/6 proteins were treated with heterobifunctional compounds; endogenous in cells; host or cells: Calu-1
# experimental.setup: 40 nM, 16 hours
experimental.endpoint: inhibition at 0.04 µM

Example entries and their recorded answers appear below.
molecule	measured.on	inhibition at 0.04 µM
CNc1ccc(C(=O)Nc2cccc(C)n2)c(NC2CC(NC(=O)CN3CCN(c4ccc(Nc5ncc6c(C)c(C(C)=O)c(=O)n(C7CCCC7)c6n5)nc4)CC3)C2)n1 (stereo not drawn)	CDK4 (Homo sapiens, UniProt P11802+Q16531)	< 30%
CNc1ccc(C(=O)Nc2ccc(Cl)c(C3CC3)n2)c(NCCCCCNC(=O)CN2CCN(c3ccc(Nc4ncc5c(C)c(C(C)=O)c(=O)n(C6CCCC6)c5n4)nc3)CC2)n1	CDK4 (Homo sapiens, UniProt P11802+Q16531)	< 30%

I'd like to know its inhibition at 0.04 µM. The molecule in question is CNc1ccc(C(=O)Nc2cccc(OC)n2)c(NC2CC3(CC(NC(=O)CN4CCN(c5ccc(Nc6ncc7c(C)c(C(C)=O)c(=O)n(C8CCCC8)c7n6)nc5)CC4)C3)C2)n1 (stereo not drawn)
50 to 80%

----------
# measured.on: CDK4 (Homo sapiens, UniProt P11802+Q16531)
# assay.notes: CDK4 percentage degradation in Calu-1 cells (Table 6)
# Assay type: cell-based
# Parameters: Cells that express cyclin D1-3 and CDK4/6 proteins were treated with heterobifunctional compounds; endogenous in cells; host or cells: Calu-1
# experimental.setup: 40 nM, 16 hours
experimental.endpoint: inhibition at 0.04 µM

Examples with their reported inhibition at 0.04 µM follow.
compound	inhibition at 0.04 µM
CNc1ccc(C(=O)Nc2cn(C)c(C3CC3)n2)c(NC2CC(NC(=O)CN3CCN(c4ccc(Nc5ncc6c(C)c(C(C)=O)c(=O)n(C7CCCC7)c6n5)nc4)CC3)C2)n1 (centres unmarked) [CPD-217]	50 to 80%
CNc1ccc(C(=O)Nc2ccc(N(C)C)nn2)c(NC2CC(NC(=O)CN3CCN(c4ccc(Nc5ncc6c(C)c(C(C)=O)c(=O)n(C7CCCC7)c6n5)nc4)CC3)C2)n1 (centres unmarked) [CPD-149]	30 to 50%
CNc1ccc(C(=O)Nc2nc(C)c(C)s2)c(NCCCCCCCNC(=O)CN2CCN(c3ccc(Nc4ncc5c(C)c(C(C)=O)c(=O)n(C6CCCC6)c5n4)nc3)CC2)n1 [CPD-4]	50 to 80%
CNc1ccc(C(=O)Nc2ccc(C)c(C3CC3)n2)c(NC2CC3(CC(NC(=O)CN4CCN(c5ccc(Nc6ncc7c(C)c(C(C)=O)c(=O)n(C8CCCC8)c7n6)nc5)CC4)C3)C2)n1 (centres unmarked) [CPD-57]	30 to 50%

Please look up its inhibition at 0.04 µM: [2H]C([2H])([2H])Nc1ccc(C(=O)Nc2cc(C)on2)c(NC2CC3(CC(NC(=O)CN4CCN(c5ccc(Nc6ncc7c(C)c(C(C)=O)c(=O)n(C8CCCC8)c7n6)nc5)CC4)C3)C2)n1 (centres unmarked) [CPD-225]
30 to 50%
